These measurements were taken from the supplement of paper PMC9446081.

# targetEntity: MurC (UniProt C4ZRI6)
# Sequence (C4ZRI6 whole entry, looked up): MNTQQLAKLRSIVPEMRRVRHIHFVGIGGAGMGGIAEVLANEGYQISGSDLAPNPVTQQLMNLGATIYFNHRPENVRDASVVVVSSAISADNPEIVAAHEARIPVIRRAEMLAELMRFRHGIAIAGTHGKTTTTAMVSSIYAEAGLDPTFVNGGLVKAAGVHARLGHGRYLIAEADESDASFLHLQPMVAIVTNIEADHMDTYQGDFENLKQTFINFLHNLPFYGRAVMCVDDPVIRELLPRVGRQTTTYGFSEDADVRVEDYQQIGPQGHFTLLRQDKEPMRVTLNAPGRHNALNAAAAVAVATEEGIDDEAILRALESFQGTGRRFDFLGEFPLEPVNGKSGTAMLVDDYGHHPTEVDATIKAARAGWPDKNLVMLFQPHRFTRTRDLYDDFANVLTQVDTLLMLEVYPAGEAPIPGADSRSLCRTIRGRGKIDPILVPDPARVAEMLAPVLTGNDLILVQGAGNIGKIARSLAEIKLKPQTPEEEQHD
# procedureText: relative enzymatic activity vs untreated control (fraction); higher = less inhibition
# conditionsUsed: 100 µM; incubation time: 2 h at 37 C
relative enzymatic activity reference
propertyName: relative enzymatic activity

* CN[C@@H]1[C@H](O[C@H]2[C@H](O[C@@H]3[C@@H](O)[C@H](O)[C@@H](NC(=N)N)[C@H](O)[C@H]3NC(=N)N)O[C@@H](C)[C@]2(O)CO)O[C@@H](CO)[C@H](O)[C@H]1O.CN[C@@H]1[C@H](O[C@H]2[C@H](O[C@@H]3[C@@H](O)[C@H](O)[C@@H](NC(=N)N)[C@H](O)[C@H]3NC(=N)N)O[C@@H](C)[C@]2(O)CO)O[C@@H](CO)[C@H](O)[C@H]1O | 0.963
* Cl.N=C(N)n1cccn1 | 0.968
* CS(=O)(=O)c1ccc(C(O)C(CF)NC(=O)C(Cl)Cl)cc1 (stereo not drawn) | 1.04

---

# targetEntity: DNA helicase (UniProt P0ACB1)
# Sequence (P0ACB1 whole entry): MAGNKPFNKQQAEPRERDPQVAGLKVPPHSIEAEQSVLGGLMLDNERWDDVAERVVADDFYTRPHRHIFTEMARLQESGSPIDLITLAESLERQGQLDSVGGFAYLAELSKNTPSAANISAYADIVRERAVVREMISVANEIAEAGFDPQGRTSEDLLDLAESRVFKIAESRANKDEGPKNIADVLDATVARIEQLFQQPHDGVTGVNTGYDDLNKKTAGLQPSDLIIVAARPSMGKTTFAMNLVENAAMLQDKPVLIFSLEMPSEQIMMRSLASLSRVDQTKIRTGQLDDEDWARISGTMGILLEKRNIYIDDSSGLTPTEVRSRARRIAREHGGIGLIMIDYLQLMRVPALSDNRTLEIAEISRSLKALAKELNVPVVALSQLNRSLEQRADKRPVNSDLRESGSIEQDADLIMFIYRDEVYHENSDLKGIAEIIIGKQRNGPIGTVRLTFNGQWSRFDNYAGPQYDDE
# procedureText: relative enzymatic activity vs untreated control (fraction); higher = less inhibition
# conditionsUsed: 100 µM; incubation time: 2 h at 37 C
propertyName: relative enzymatic activity

• Cl.O=C1CC2(CCCC2)CC(=O)N1CCCCN1CCN(c2ncccn2)CC1 = 0.485
• CCCCCCCCCCCCCCCC[N+](C)(C)Cc1ccccc1.[Cl-] = 0.0157
• CC(C)[C@@H](CC[C@@H](C)[C@H]1CC[C@H]2[C@@H]3[C@H](O)C[C@H]4C[C@@H](NCCCNCCCCN)CC[C@]4(C)[C@H]3CC[C@]12C)OS(=O)(=O)O = 0.0849
• CC(O)C1C(=O)N2C(C(=O)O)=C(SC3CNC(C(=O)N(C)C)C3)C(C)C12 (centres undefined) = 0.994

---

# Tested on: DNA gyrase
# procedureText: relative enzymatic activity vs untreated control (fraction); higher = less inhibition
# conditionsUsed: 100 µM; incubation time: 2 h at 37 C
propertyName: relative enzymatic activity

- Cc1cc(=O)c(C(=O)N[C@@H](C(=O)N[C@@H]2C(=O)N3C(C(=O)O)=C(CSc4nnnn4C)CS[C@H]23)c2ccc(O)cc2)c[nH]1: 0.759
- Oc1c(Cl)cc(Cl)c(Cl)c1Cc1c(O)c(Cl)cc(Cl)c1Cl: 0.191
- CC(O)C1C(=O)N2C(C(=O)O)=C(SC3CNC(C(=O)N(C)C)C3)C(C)C12 (stereo not drawn): 0.734
- NC(=O)NN=Cc1ccc([N+](=O)[O-])o1: 0.958
- CCC=C(C(=O)NC1C(=O)N2C(C(=O)OCOC(=O)C(C)(C)C)=C(COC(N)=O)CSC12)c1csc(N)n1.Cl (stereo not drawn): 0.924
- COC(=O)N/N=C/c1c[n+]([O-])c2ccccc2[n+]1[O-]: 0.905
- CC(C)[C@@H](CC[C@@H](C)[C@H]1CC[C@H]2[C@@H]3[C@H](O)C[C@H]4C[C@@H](NCCCNCCCCNCCCN)CC[C@]4(C)[C@H]3CC[C@]12C)OS(=O)(=O)O: 1.18
- NC(=O)[C@@H]1C(=O)C[C@@H]2C[C@@H]3Cc4cccc(O)c4C(=O)[C@@H]3C(=O)[C@]2(O)C1=O: 1.02

---

# targetEntity: MurF (UniProt P11880)
# Sequence (P11880 whole entry): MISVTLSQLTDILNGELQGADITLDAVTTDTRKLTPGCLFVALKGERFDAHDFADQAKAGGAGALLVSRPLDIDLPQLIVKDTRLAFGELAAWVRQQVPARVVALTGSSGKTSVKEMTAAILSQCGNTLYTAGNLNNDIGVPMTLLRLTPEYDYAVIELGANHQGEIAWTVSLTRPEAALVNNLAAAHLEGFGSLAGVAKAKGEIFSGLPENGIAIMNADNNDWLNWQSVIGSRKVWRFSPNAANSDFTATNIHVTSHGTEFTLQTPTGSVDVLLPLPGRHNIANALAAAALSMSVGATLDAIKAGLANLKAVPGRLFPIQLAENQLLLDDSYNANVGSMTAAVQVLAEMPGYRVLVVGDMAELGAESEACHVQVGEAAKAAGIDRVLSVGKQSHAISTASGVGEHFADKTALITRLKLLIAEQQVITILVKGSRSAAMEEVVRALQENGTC
# procedureText: relative enzymatic activity vs untreated control (fraction); higher = less inhibition
# conditionsUsed: 100 µM; incubation time: 2 h at 37 C
propertyName: relative enzymatic activity

- CCCCCCCCCCCCCCCC[N+](C)(C)Cc1ccccc1.[Cl-]: 0.156
- O=C([O-])CCC(=O)OCC(NC(=O)C(Cl)Cl)C(O)c1ccc([N+](=O)[O-])cc1.[Na+] (configuration not stated): 0.957
- O=C1NCCN1c1ncc([N+](=O)[O-])s1: 0.389
- Cn1sccc1=O: 0.968
- NC(=O)[C@@H]1CC[C@@H]2CN1C(=O)N2OS(=O)(=O)O: 0.976
- CCOC(=O)OC(C)OC(=O)C1N2C(=O)C(NC(=O)C(N)c3ccccc3)C2SC1(C)C.Cl (configuration not stated): 0.981
- CN(C)C1C(O)=C(C(N)=O)C(=O)C2(O)C(O)=C3C(=O)c4c(O)cccc4C(C)(O)C3CC12.Cl (configuration not stated): 0.964
- C=CC1=C(C(=O)O)N2C(=O)[C@@H](NC(=O)/C(=N/O)c3csc(N)n3)[C@H]2SC1: 0.943
- CN[C@@H]1[C@H](O)[C@H](NC)[C@H]2O[C@@]3(O)C(=O)C[C@@H](C)O[C@H]3O[C@@H]2[C@H]1O: 1.16
- COC1(NC(=O)C(C(=O)[O-])c2ccc(O)cc2)C(=O)N2C(C(=O)[O-])=C(CSc3nnnn3C)COC21.[Na+].[Na+] (configuration not stated): 0.913
- CON=C1CN(c2nc3c(cc2F)c(=O)c(C(=O)O)cn3C2CC2)CC1CN.CS(=O)(=O)O (configuration not stated): 0.919
- C=C1c2cccc(O)c2C(=O)C2=C(O)C3(O)C(=O)C(C(N)=O)=C(O)C(N(C)C)C3C(O)C12.Cl (configuration not stated): 0.937
- O=C(O)c1cn(C2CC2)c2cc(N3CCNCC3)c(F)cc2c1=O: 0.991
- Cc1cc(C2CCCCC2)n(O)c(=O)c1.NCCO: 1.02
- CON=C(C(=O)NC1C(=O)N2C(C(=O)[O-])=C(COC(N)=O)CSC12)c1ccco1.[Na+] (configuration not stated): 1.02
- NC[C@H]1OB(O)c2c(OCCCO)cccc21: 1.17
- Cc1cc(=O)c(C(=O)N[C@@H](C(=O)N[C@@H]2C(=O)N3C(C(=O)O)=C(CSc4nnnn4C)CS[C@H]23)c2ccc(O)cc2)c[nH]1: 0.92

---

# Tested on: RNA polymerase
# procedureText: relative enzymatic activity vs untreated control (fraction); higher = less inhibition
# conditionsUsed: 100 µM; incubation time: 2 h at 37 C
Would you mind sorting the entries by relative enzymatic activity according to these classes? low value: < 0.8; medium value: ≥ 0.8 and < 0.9; high value: ≥ 0.9

• CC1c2cccc(O)c2C(=O)C2=C(O)C3(O)C(=O)C(C(N)=O)=C(O)C(N(C)C)C3C(O)C21.Cl (configuration not stated) = high value
• Cc1ccc(S(=O)(=O)O)cc1.NC1CCN(c2nc3c(cc2F)c(=O)c(C(=O)O)cn3-c2ccc(F)cc2F)C1.O (configuration not stated) = low value
• CN(C)c1ccc(O)c2c1C[C@H]1C[C@H]3[C@H](N(C)C)C(=O)[C@@H](C(N)=O)C(=O)[C@@]3(O)C(=O)[C@H]1C2=O = low value
• COc1ccc(Cc2cnc(N)nc2N)cc1OC = high value
• CC[C@H]1OC(=O)C[C@@H](O)[C@H](C)[C@@H](O[C@@H]2O[C@H](C)C[C@H](N(C)C)[C@H]2O)[C@@H](CC=O)C[C@@H](C)C(=O)/C=C/[C@]2(C)O[C@H]2[C@@H]1C = medium value
• CN(C)c1ccc(O)c2c1C[C@@H]1C[C@@H]3[C@@H](N(C)C)C(=O)C(C(N)=O)=C(O)[C@]3(O)C(=O)[C@H]1C2=O = low value
• NC[C@H]1OB(O)c2c(OCCCO)cccc21 = medium value
• Cc1scc2c1N(C(=O)CN1CCN(C)CC1)c1ccccc1NC2=O.Cl = medium value
• CCn1cc(C(=O)O)c(=O)c2cc(F)c(N3CCNC(C)C3)c(F)c21.Cl (configuration not stated) = high value
• COC1(NC(=O)CSCC#N)C(=O)N2C(C(=O)[O-])=C(CSc3nnnn3C)CSC21.[Na+] (configuration not stated) = medium value
• CO/N=C(\C(=O)N[C@@H]1C(=O)N2C(C(=O)O)=C(C)CS[C@H]12)c1csc(N)n1 = medium value
• CN1CCN(c2c(F)cc3c(=O)c(C(=O)O)cn(CCF)c3c2F)CC1 = high value
• Cl.Cl.N=C(NCCCCCCNC(=N)NC(=N)Nc1ccc(Cl)cc1)NC(=N)Nc1ccc(Cl)cc1 = low value
• O=C([O-])CCC(=O)OCC(NC(=O)C(Cl)Cl)C(O)c1ccc([N+](=O)[O-])cc1.[Na+] (configuration not stated) = medium value
• Cc1cc(O)c(C(=O)NC(C(=O)NC2C(=O)N3C(C(=O)O)=C(CSc4nnnn4C)CSC23)c2ccc(O)cc2)cn1 (configuration not stated) = medium value
• CCn1nc(C(=O)O)c(=O)c2cc3c(cc21)OCO3 = high value
• NCc1ccccc1CC(=O)NC1C(=O)N2C(C(=O)O)=C(CSc3nnnn3CC(=O)O)CSC12 (configuration not stated) = high value
• CC1CN(c2c(F)c(F)c3c(=O)c(C(=O)O)cn(C4CC4)c3c2F)CC(C)N1 (configuration not stated) = medium value
• CC[C@H](C)C[C@H](C)CCCCCCCCC(=O)N[C@H]1C[C@@H](O)[C@@H](NCCN)NC(=O)[C@@H]2[C@@H](O)CCN2C(=O)[C@H]([C@H](O)CCN)NC(=O)[C@H]([C@H](O)[C@@H](O)c2ccc(O)cc2)NC(=O)[C@@H]2C[C@@H](O)CN2C(=O)[C@H]([C@@H](C)O)NC1=O = low value
• CON=C(C(=O)N[C@@H]1C(=O)N2C(C(=O)OCOC(=O)C(C)(C)C)=C(C=Cc3scnc3C)CS[C@H]12)c1csc(N)n1 = high value
• CC(=O)On1cc(F)c(=O)[nH]c1=O = low value
• Nc1ncn(C2OC(CO)C(O)C2O)c(=O)n1 (configuration not stated) = high value
• C=CC1=C(C(=O)O)N2C(=O)C(NC(=O)C(=NO)c3csc(N)n3)C2SC1 (configuration not stated) = low value
• Nc1nc(/C(=N/O)C(=O)N[C@@H]2C(=O)N3C(C(=O)O)=C(/C=C4\CCN([C@@H]5CCNC5)C4=O)CS[C@H]23)ns1 = low value
